# experimental-target: T1, recombinant Bacteroides fragilis toxin 1 (BFT1), full length without signal peptide (Bacteroides fragilis (enterotoxigenic), …)
# T1 construct: B. fragilis toxin subtype 1 (BFT1, fragilysin), zinc-dependent metallopeptidase of enterotoxigenic Bacteroides fragilis; prodomain plus catalytic domain, without the signal peptide; also called B. fragilis toxin; source: E. coli Origami-2 (DE3), purified (Ni-NTA, SEC on Superdex 75)
# T1 chain: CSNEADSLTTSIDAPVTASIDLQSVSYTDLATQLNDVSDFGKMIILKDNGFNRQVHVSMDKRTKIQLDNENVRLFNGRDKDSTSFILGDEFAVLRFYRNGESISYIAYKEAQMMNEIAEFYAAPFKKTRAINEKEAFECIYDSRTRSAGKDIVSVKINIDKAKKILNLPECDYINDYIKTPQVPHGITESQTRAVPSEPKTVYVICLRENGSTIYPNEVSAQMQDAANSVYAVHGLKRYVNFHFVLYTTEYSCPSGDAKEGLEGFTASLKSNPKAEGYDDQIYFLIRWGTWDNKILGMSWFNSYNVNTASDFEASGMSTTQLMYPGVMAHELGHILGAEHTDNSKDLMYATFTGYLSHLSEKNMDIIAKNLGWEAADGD
# method-description: ITC; Microcal ITC 200, 25°C; 20 mM Tris pH 8.0, 150 mM NaCl, 5% glycerol; nanobody (20 μM) injected into BFT solution (200 μM); one binding site mode
# test-parameters: both partners purified
observable: pKd
// scale note: pKd = -log10(conc_M); give the bare number

Sample answers from the record:
1. Nb3.93 (VHH, from round 3 of bio-panning; source: E. coli WK6 periplasm, purified (Ni-NTA, SEC on Superdex 75)) VHH: QVQLQESGGGLVQPGGSLRLSCAASGSTLARYHIGWFRQAPGKEREGVACISSSGDSTNYADSVKGRFTISRDNANNTVYLQMNSLKPEDTAVYYCVADPLKCILRRGGENRYLEHWGQGTQVTVSS | 8.22
2. Nb2.41 (VHH, from round 2 of bio-panning; source: E. coli WK6 periplasm, purified (Ni-NTA, SEC on Superdex 75)) VHH: QVQLQESGGGLVQAGGSLRLSCASSGRTFDAWAMGWFRQAPGKEREVVATISWNGDRTYYGDSVKGRFTISRDNAKSTVALQMNNLKPEDTGVYYCAQMEGTYYSGRPSYWGQGTQVTVSS | 8.86
3. Nb2.40 (VHH, from round 2 of bio-panning; source: E. coli WK6 periplasm, purified (Ni-NTA, SEC on Superdex 75)) VHH: QVQLQESGGGLVQAGGSLRLSCAYFGRTFSAWAMGWFRQAPGKERESVATINWSGERTSYADSVKGRFTISRDNAKNTVYLQMNSLKPEDTAVYYCAAMEGTYYSGKPGTWGQGTQVTVSS | 8.06
4. Nb2.29 (VHH, from round 2 of bio-panning; source: E. coli WK6 periplasm, purified (Ni-NTA, SEC on Superdex 75)) VHH: QVQLQESGGGLVQAGGSLRLSCVASGIIDNINTFGWYRQAPGKQRELVANISRWGNTNYADSSRDGFFISSEDANTTMYLLMMNLKPDDDAVYYCRAEIIGYDNGAHDYWGRGTRITVSS | 8.93
5. Nb3.4 (VHH, from round 3 of bio-panning; source: E. coli WK6 periplasm, purified (Ni-NTA, SEC on Superdex 75)) VHH: QVQLQESGGGLVQPGGSLRLSCAASGFTFSSAAMNWVRQAPGKGPEWVSGINSSGTTTKYADSVKGRFTISRDNAKNTLYLQMNSLKPEDTAIYYCARKPLWSVGYDYWGQGTQVTVSS | 8.40
6. Nb2.82 (VHH, from round 2 of bio-panning; CDR1 Gly26-Thr33, CDR2 Ile51-Thr58, CDR3 Ala97-Asp111; source: E. coli WK6 periplasm, purified (Ni-NTA, SEC on Superdex 75)) VHH: QVQLQESGGGLVQPGGSLRLSCAASGFTFSRYTMTWVRQAPGKGLEWVSNINSDGGRTYYADSVKGRFTISRDNTKNTLYLQMNSLKPEDTAVYYCAIPKRTYVPPSQFDDRGQGTQVTVSS | 7.94

The reported value for Nb3.43 (VHH, from round 3 of bio-panning; source: E. coli WK6 periplasm, purified (Ni-NTA, SEC on Superdex 75)) VHH: QVQLQESGGGLVQAGGSLRLSCARSGRTFSSFAMGWFRQAPGKEREFVATINWSGDKTSYADSVKGRFTISRDNAKNTVYLQMNSLKPEDTAVYYCAQMDGTYYSGSPGYWGQGTQVTVSS in terms of pKd is 8.70

The reported value for Nb3.27 (VHH, from round 3 of bio-panning; CDR1 Gly26-Ala33, CDR2 Ile51-Thr58, CDR3 Ala97-Asn110; source: E. coli WK6 periplasm, purified (Ni-NTA, SEC on Superdex 75)) VHH: QVQLQESGGGLVQAGGSLRLSCTYSGQTFSAWAMGWFRQAPGKERETVATINWNGERTQYADAVKGRFTISRDNAKDTVYLEMNSLKPEDTAVYYCASMMGTYYSGSPKNWGQGTQVTVSS in terms of pKd is 9.08

The reported value for Nb2.37 (VHH, from round 2 of bio-panning; source: E. coli WK6 periplasm, purified (Ni-NTA, SEC on Superdex 75)) VHH: QVQLQESGGGLVQPGGSLRLSCVVSRRTFDAWAMGWFRQAPGQERDFVASVNWSGDSTYYADSVKGRFTISRDNAKNTVYLQMNSLKPEDTAVYYCAALAGSYHSRTPLDDYWGQGTQVTVSS in terms of pKd is 8.41

The reported value for Nb3.63 (VHH, from round 3 of bio-panning; source: E. coli WK6 periplasm, purified (Ni-NTA, SEC on Superdex 75)) VHH: QVQLQESGGGLVQVGGSLRLSCAASGRTFGTFPMGWFRQAPGKEREFVAAISWSGTGTYYANSVKGRFTISRDNARNTVYLQMNNLKPEDTAVYSCAGRNTGRYSTTVYVEESDYGYWGQGTQVTVSS in terms of pKd is 8.47
